# target: Histamine H1 receptor (Homo sapiens, UniProt P35367)
# Sequence (P35367 whole entry): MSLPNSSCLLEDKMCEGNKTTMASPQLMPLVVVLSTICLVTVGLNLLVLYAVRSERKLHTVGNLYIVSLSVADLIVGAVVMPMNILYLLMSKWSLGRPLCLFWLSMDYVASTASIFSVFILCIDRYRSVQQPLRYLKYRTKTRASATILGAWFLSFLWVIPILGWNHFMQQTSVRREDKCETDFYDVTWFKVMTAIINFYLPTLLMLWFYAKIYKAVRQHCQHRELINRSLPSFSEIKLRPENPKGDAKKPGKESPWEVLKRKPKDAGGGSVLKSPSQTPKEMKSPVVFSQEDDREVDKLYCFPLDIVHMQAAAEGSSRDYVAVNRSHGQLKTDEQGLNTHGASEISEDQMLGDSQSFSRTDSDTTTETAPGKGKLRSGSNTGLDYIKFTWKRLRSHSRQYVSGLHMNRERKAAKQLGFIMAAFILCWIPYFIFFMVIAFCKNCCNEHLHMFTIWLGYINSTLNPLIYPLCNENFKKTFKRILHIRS
# method-description: Antagonist activity at human recombinant histamine H1 receptor expressed in intact CHO cells assessed as inhibition of histamine-induced cellular calcium mobilization at 100 nM after 30 mins by FLIPR assay
# Type: functional, cell-based
# condition-info: read-out: pA2 (converted)
attribute-measured: Kb (nM)

Kb for `O=c1c2ccccc2c(Cc2ccc(Cl)cc2)nn1C[C@H]1CCCN1CCCCCc1ccc(OCCCN2CCCCCC2)cc1` ?
1.26

I: O=c1c2ccccc2c(Cc2ccc(Cl)cc2)nn1C[C@H]1CCCN1CCCCc1ccc(OCCCN2CCCCCC2)cc1
II: COc1ccc(Cc2nn(C[C@H]3CCCN3CCCCc3ccc(OCCCN4CCCCCC4)cc3)c(=O)c3ccccc23)cc1
III: O=c1c2ccccc2c(Cc2ccc(O)cc2)nn1C[C@H]1CCCN1CCCCc1ccc(OCCCN2CCCCCC2)cc1
Sort (3 compounds) by Kb: min first. API: response body holds the labels in the requested order.
I, II, III

---

# method-description: Unchanged drug level in Beagle dog urine at 3 mg/kg, po and 1 mg/kg, iv after 24 hrs
# Format: ADME, organism-based, Canis lupus familiaris
# condition-info: read-out: Activity
attribute-measured: dose excreted at 24 h

dose excreted at 24 h for `O=c1c2ccccc2c(Cc2ccc(Cl)cc2)nn1C[C@H]1CCCN1CCCCc1ccc(OCCCN2CCCCCC2)cc1` ?
< 1%

---

# target: Histamine H2 receptor (Homo sapiens)
# Sequence (P25021 whole entry): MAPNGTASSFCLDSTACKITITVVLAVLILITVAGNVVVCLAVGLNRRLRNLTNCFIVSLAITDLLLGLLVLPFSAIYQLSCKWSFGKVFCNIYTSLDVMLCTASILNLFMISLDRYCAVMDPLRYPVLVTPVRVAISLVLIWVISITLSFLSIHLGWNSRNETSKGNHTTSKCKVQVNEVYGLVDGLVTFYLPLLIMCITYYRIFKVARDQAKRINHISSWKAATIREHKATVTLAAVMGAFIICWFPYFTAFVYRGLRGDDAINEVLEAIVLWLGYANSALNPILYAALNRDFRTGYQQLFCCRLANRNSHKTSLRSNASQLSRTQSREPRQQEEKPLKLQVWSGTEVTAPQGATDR
attribute-measured: pIC50
In textbook form, pIC50 equals minus log to base ten of the concentration in mol/L.

Give the reported pIC50 for O=c1c2ccccc2c(Cc2ccc(Cl)cc2)nn1C[C@H]1CCCN1CCCCc1ccc(OCCCN2CCCCCC2)cc1 [GSK-1004723] (system: Histamine H2 receptor (Homo sapiens)).
5.00

---

# target: Histamine H3 receptor (Homo sapiens)
# Sequence (Q9Y5N1 whole entry): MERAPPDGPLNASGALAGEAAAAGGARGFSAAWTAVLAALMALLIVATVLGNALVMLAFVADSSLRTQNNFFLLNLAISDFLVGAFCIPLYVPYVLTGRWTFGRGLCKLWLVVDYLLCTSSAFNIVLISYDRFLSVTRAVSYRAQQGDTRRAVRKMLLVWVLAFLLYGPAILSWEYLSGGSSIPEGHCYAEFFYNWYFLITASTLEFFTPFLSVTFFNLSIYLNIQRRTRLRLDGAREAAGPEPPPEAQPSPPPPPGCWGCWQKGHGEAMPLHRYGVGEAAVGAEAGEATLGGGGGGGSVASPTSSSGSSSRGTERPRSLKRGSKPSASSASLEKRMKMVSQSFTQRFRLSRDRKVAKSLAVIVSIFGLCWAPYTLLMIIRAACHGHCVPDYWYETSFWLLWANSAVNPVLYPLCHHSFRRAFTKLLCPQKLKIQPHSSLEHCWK
# method-description: Antagonist activity at human recombinant histamine H3 receptor expressed in CHO cells assessed as inhibition of histamine-induced GTP-gammaS binding
pKi: −log10 of the molar value.
attribute-measured: pKi

pKi for `O=c1c2ccccc2c(Cc2ccc(Cl)cc2)nn1CCNCCCCc1ccc(OCCCN2CCCCCC2)cc1` ?
9.40

I: COc1ccc(Cc2nn(C[C@H]3CCCN3CCCCc3ccc(OCCCN4CCCCCC4)cc3)c(=O)c3ccccc23)cc1
II: Cc1cccc(Cc2nn(C[C@H]3CCCN3C)c(=O)c3ccccc23)c1
III: O=c1c2ccccc2c(Cc2ccc(Cl)cc2)nn1C1CCCN(CCc2ccc(OCCCN3CCCCCC3)cc2)CC1 (centres undefined)
Given 3 molecules, produce a descending ranking by pKi. API: response body holds the labels in the requested order.
I, III, II

---

# method-description: Oral bioavailability in CD rat at 3 mg/kg
# Format: ADME, organism-based
# condition-info: in vivo
attribute-measured: bioavailability (%)

P: O=c1c2ccccc2c(Cc2ccc(Cl)cc2)nn1C[C@H]1CCCN1CCCCc1ccc(OCCCN2CCCCCC2)cc1 [GSK-1004723]
Q: CN1CCCC(n2nc(Cc3ccc(Cl)cc3)c3ccccc3c2=O)CC1 (racemic) [AZELASTINE]
Given the listed records, identify the one among P and Q with higher bioavailability. Reply with the label of the item you choose.
Q

---

# method-description: Half life in Beagle dog at 3 mg/kg, po and 1 mg/kg, iv
# Type: ADME, organism-based, Canis lupus familiaris
# condition-info: in vivo
attribute-measured: half-life (min)
Enter your answer as a number in min; do not include the unit.

half-life for `O=c1c2ccccc2c(Cc2ccc(Cl)cc2)nn1C[C@H]1CCCN1CCCCc1ccc(OCCCN2CCCCCC2)cc1` ?
564
